Biological target: human ACVR2A (human, UniProt P27037 20-135, limits assumed); further: test concentration or dose not given here
Sequence (P27037 20-135 limits assumed): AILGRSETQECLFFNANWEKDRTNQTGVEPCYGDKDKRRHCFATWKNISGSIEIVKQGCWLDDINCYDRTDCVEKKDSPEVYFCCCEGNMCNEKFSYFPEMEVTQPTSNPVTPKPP
Test: ELISA
Procedure: The binding of ACVR2A-specific monoclonal antibodies to human ACVR2A, mouse ACVR2A, biotinylated goat anti-human kappa light chain (positive control) and human Fc (negative control) were determined by ELISA.
READOUT_LABEL: optical density (OD)
Use OD as the unit, but write only the number.

| BINDER | UNIT_INFO | ENDPOINT_RESULT |
| --- | --- | --- |
| 368_D10 (antibody, V domains shown, VH/VL only) VH: EVQLLESGGGLVQPGGSLRLSCAASGFTFDSYGMNWVRQAPGKGLEWVAGINYNSGYTSYADSVKGRFTISRDNSKNTLYLQMNSLRAEDTAVYYCARSATWHDTALDYWGQGTLVTVSS VL: DIQMTQSPSSLSASVGDRVTITCRASQSILSYLNWYQQKPGKAPKLVIYAATSRASGVPSRFSGSGSGTDFTLTISSLQPEDFATYYCQQSYDSPLTFGGGTKVEIK | OD | 2.25 |
| 369_F12 (antibody, V domains shown, VH/VL only) VH: EVQLLESGGGLVQPGGSLRLSCAASGFTFSSYSMNWVRQAPGKGLEWVASINYNSGYKSYADSVKGRFTISRDNSKNTLYLQMNSLRAEDTAVYYCARSATWHDTHLDYWGQGTLVTVSS VL: DIQMTQSPSSLSASVGDRVTITCRASQSIISYLNWYQQKPGKAPKLLIYAVTSLASGVPSRFSGSGSGTDFTLTISSLQPEDFATYYCQQSYENPLTFGGGTKVEIK | OD | 2.73 |
| 375_E07 (antibody, V domains shown, VH/VL only) VH: EVQLLESGGGLVQPGGSLRLSCAASGFTFSDYSMNWVRQAPGKGLEWVAGINYNSGYKGYADSVKGRFTISRDNSKNTLYLQMNSLRAEDTAVYYCARSANWHDTALDYWGQGTLVTVSS VL: DIQMTQSPSSLSASVGDRVTITCRASQSIVTYLNWYQQKPGKAPKLLIYVVTNRESGVPSRFSGSGSGTDFTLTISSLQPEDFATYYCQQSYETPLTFGGGTKVEIK | OD | 3.68 |
| 374_E11 (antibody, V domains shown, VH/VL only) VH: EVQLLESGGGLVQPGGSLRLSCAASGFTFSSYGMNWVRQAPGKGLEWVSNINYNGGYTSYADSVKGRFTISRDNSKNTLYLQMNSLRAEDTAVYYCARSANWHDTALDYWGQGTLVTVSS VL: DIQMTQSPSSLSASVGDRVTITCRASQSIVTYLNWYQQKPGKAPKLVIYAATSRASGVPSRFSGSGSGTDFTLTISSLQPEDFATYYCQQSYDSPLTFGGGTKVEIK | OD | 3.61 |
| 374_F11 (antibody, V domains shown, VH/VL only) VH: EVQLLESGGGLVQPGGSLRLSCAASGFTFDSYSMNWVRQAPGKGLEWVSNINYNGGYTGYADSVKGRFTISRDNSKNTLYLQMNSLRAEDTAVYYCARSANWHDTALDYWGQGTLVTVSS VL: DIQMTQSPSSLSASVGDRVTITCRASQSILSYLNWYQQKPGKAPKLLIYAVTSLASGVPSRFSGSGSGTDFTLTISSLQPEDFATYYCQQSYESPLTFGGGTKVEIK | OD | 3.66 |

I am curious: what optical density value has been reported for 366_B04 (antibody, V domains shown, VH/VL only) VH: EVQLLESGGGLVQPGGSLRLSCAASGFTFDSYSMNWVRQAPGKGLEWVAGINYNGGYKGYADSVKGRFTISRDNSKNTLYLQMNSLRAEDTAVYYCARSATWHDTHLDYWGQGTLVTVSS VL: DIQMTQSPSSLSASVGDRVTITCRASQSILTYVNWYQQKPGKAPKLVIYAATSRHSGVPSRFSGSGSGTDFTLTISSLQPEDFATYYCQQSYDTPLTFGGGTKVEIK ?
2.81

I am curious: what optical density value has been reported for 375_D08 (antibody, V domains shown, VH/VL only) VH: EVQLLESGGGLVQPGGSLRLSCAASGFTFSDYGMNWVRQAPGKGLEWVSGINYNSGYKGYADSVKGRFTISRDNSKNTLYLQMNSLRAEDTAVYYCARSANWHDTALDYWGQGTLVTVSS VL: DIQMTQSPSSLSASVGDRVTITCRASQSIITYLNWYQQKPGKAPKLLIYAATSRASGVPSRFSGSGSGTDFTLTISSLQPEDFATYYCQQSYSTPLTFGGGTKVEIK ?
3.29

I am curious: what optical density value has been reported for 376_D05 (antibody, V domains shown, VH/VL only) VH: EVQLLESGGGLVQPGGSLRLSCAASGFTFSSYSMNWVRQAPGKGLEWVSNINYNGGYKGYADSVKGRFTISRDNSKNTLYLQMNSLRAEDTAVYYCARSANWHDTALDYWGQGTLVTVSS VL: DIQMTQSPSSLSASVGDRVTITCRASQSIVSYVNWYQQKPGKAPKLLIYAATSLASGVPSRFSGSGSGTDFTLTISSLQPEDFATYYCQQSYDTPLTFGGGTKVEIK ?
3.6

I am curious: what optical density value has been reported for 370_H03 (antibody, V domains shown, VH/VL only) VH: EVQLLESGGGLVQPGGSLRLSCAASGFTFDSYSMNWVRQAPGKGLEWVAGINYNSGYKGYADSVKGRFTISRDNSKNTLYLQMNSLRAEDTAVYYCARSATWHDTHLDYWGQGTLVTVSS VL: DIQMTQSPSSLSASVGDRVTITCRASQSILTYLNWYQQKPGKAPKLLIYAATSLASGVPSRFSGSGSGTDFTLTISSLQPEDFATYYCQQSYDTPLTFGGGTKVEIK ?
3.43

I am curious: what optical density value has been reported for 376_C02 (antibody, V domains shown, VH/VL only) VH: EVQLLESGGGLVQPGGSLRLSCAASGFTFDSYGMNWVRQAPGKGLEWVSGINYNSGYTSYADSVKGRFTISRDNSKNTLYLQMNSLRAEDTAVYYCARSANWHDTALDYWGQGTLVTVSS VL: DIQMTQSPSSLSASVGDRVTITCRASQSIVSYLNWYQQKPGKAPKLVIYAVTSRASGVPSRFSGSGSGTDFTLTISSLQPEDFATYYCQQSYDSPLTFGGGTKVEIK ?
3.44
